# key: entry, value: IC50
# target or test system: EGFR (L858R T790 M C797S) (Homo sapiens, UniProt P00533, C797S/L858R/T790M)
# Construct: purchased SignalChem E10-122VG
# Sequence (P00533 25-1210 T790M/C797S/L858R): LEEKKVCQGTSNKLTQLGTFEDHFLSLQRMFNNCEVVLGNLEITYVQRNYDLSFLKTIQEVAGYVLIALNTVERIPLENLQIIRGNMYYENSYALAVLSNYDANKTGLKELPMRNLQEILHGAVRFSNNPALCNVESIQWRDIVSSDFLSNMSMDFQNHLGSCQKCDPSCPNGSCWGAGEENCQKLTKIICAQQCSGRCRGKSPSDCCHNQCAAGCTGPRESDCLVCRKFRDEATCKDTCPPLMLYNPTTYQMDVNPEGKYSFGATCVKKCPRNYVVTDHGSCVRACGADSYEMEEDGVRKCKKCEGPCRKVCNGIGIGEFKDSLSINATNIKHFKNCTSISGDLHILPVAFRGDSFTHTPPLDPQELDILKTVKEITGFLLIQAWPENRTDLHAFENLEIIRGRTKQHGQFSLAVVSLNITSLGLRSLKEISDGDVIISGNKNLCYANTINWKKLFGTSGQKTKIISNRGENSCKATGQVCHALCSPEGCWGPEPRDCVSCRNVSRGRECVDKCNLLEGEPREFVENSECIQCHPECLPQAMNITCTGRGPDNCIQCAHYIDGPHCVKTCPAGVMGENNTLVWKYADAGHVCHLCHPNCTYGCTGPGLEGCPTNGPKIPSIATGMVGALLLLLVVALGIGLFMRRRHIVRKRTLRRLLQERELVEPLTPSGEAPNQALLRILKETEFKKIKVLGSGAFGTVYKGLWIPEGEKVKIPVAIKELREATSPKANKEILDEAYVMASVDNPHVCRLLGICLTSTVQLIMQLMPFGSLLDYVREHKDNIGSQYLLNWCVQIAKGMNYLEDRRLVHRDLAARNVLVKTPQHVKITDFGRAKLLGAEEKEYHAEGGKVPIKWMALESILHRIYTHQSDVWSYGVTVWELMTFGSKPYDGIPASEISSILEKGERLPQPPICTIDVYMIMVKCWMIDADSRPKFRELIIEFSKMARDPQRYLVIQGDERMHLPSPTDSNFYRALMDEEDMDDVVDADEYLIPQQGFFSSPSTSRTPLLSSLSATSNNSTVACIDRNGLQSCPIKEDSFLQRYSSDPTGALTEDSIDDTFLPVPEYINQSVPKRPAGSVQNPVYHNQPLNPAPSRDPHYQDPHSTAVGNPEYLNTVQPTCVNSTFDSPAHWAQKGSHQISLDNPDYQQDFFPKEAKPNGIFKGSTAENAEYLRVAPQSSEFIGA
# assay method text: Biochemical EGFR inhibition assay (Caliper mobility shift), LRTMCS mutant at 1 mM ATP
# experimental context: read-out: LRTMCS (PH) IC50 (nM) @ 1 mM ATP (Num)
assay readout: IC50

INSERT INTO results (compound, recorded_measurement) VALUES
  ('Cc1ncc(-c2nccc(Nc3cc4c(C(C)C)cnc(N5CC(CS(C)(=O)=O)C5)c4cn3)n2)s1', '≤ 15 nM'),
  ('CC(C)c1cnc(N2CC(CS(C)(=O)=O)C2)c2cnc(Nc3ccnc([C@H]4C[C@H](O)C4)n3)cc12', '15 to 20 nM'),
  ('CC(C)c1ccc(N2CC(CS(C)(=O)=O)C2)c2cnc(Nc3ccnc(-c4cncc(Cl)c4)n3)cc12', '30 to 100 nM'),
  ('CC(C)c1cnc(N2CC(CS(C)(=O)=O)C2)c2cnc(Nc3ccnc([C@]4(C)C[C@@H](O)C4)n3)cc12 (single isomer, unassigned) [Example 25]', '> 100 nM'),
  ('Cc1ncc(-c2nccc(Nc3cc4c(C(C)C)ncc(N5CC(CS(C)(=O)=O)C5)c4cn3)n2)s1', '≤ 15 nM'),
  ('CC(C)c1cnc(N2CC(CS(C)(=O)=O)C2)c2cnc(Nc3ccnc(C4CCC4)n3)cc12', '30 to 100 nM'),
  ('CC(C)c1ccc(N2CC(CS(C)(=O)=O)C2)c2cnc(Nc3ccnc(-c4cccnc4)n3)cc12', '≤ 15 nM'),
  ('Cc1ncc(-c2nccc(Nc3cc4c(C(C)C)ccc(N5C[C@H](CS(C)(=O)=O)[C@H]5C)c4cn3)n2)s1 (single isomer, unassigned) [Example 21]', '> 100 nM'),
  ('CC(C)c1cnc(N2CC(CS(C)(=O)=O)C2)c2cnc(Nc3ccnc(C45CC(CO)(C4)C5)n3)cc12', '15 to 20 nM'),
  ('C[C@H](CO)c1ccc(N2CC(CS(C)(=O)=O)C2)c2cnc(Nc3ccnc(-c4cnn(C)c4)n3)cc12 (single isomer, unassigned) [Example 19]', '≤ 15 nM'),
  ('Cc1ncc(-c2nccc(Nc3cc4c(C(C)C)ccc(N5C[C@H](CS(C)(=O)=O)[C@H]5C)c4cn3)n2)s1 (single isomer, unassigned) [Example 20]', '≤ 15 nM'),
  ('CCS(=O)(=O)CC1CN(c2ccc(C(C)C)c3cc(Nc4ccnc(-c5cnn(C)c5)n4)ncc23)C1', '≤ 15 nM'),
  ('CC(C)c1ccc(N2C[C@H](CS(C)(=O)=O)[C@H]2C)c2cnc(Nc3ccnc(-c4cccnc4)n3)cc12 (single isomer, unassigned)', '≤ 15 nM');

====

# Test system: phosphorylation of EGFR in NCI-H1975 cell line that harbors the EGFR L858R T790 M mutations
# assay method text: NCI-H1975 pEGFR AlphaLISA assay
# Assay type: cell-based
# experimental context: Homo sapiens, NCI-H1975, NCI-H1975 cells, p-EGFR (Tyr1068), 4-5 hours incubation; read-out: Ext pEGFR H1975 GMean IC50 (nM) Protocol: @ Pharmaron AlphaLISA (Num)
# Procedure: Inhibitory effects of the compounds of the disclosure were evaluated in cellular assays that measure level of intracellular phosphorylation of EGFR in NCI-H1975 cell line that harbors the EGFR L858R T790 M mutations (ATCC, CRL-5908) using AlphaLISA sureFire ultra p-EGFR (Tyr1068) assay kit (PerkinElmer, ALSU-PEGFR-A50K). […] On the next day, the plate was read at a compatible plate reader to obtain pEGFR signal. […]
assay readout: IC50

INSERT INTO results (compound, assay_readout, recorded_measurement) VALUES
  ('CC(C)c1ccc(N2CC(CS(C)(=O)=O)C2)c2cnc(Nc3ccnc(-c4cncc(Cl)c4)n3)cc12', 'IC50', '> 50 nM'),
  ('CC(C)c1ccc(N2CC(CS(C)(=O)=O)C2)c2cnc(Nc3ccnc(C4=CCC5(CC4)OCCO5)n3)cc12', 'IC50', '30 to 50 nM'),
  ('CC(C)c1ccc(N2C[C@H](CS(C)(=O)=O)[C@H]2C)c2cnc(Nc3ccnc(-c4cccnc4)n3)cc12 (single isomer, unassigned)', 'IC50', '< 10 nM'),
  ('CC(C)c1cnc(N2CC(CS(C)(=O)=O)C2)c2cnc(Nc3ccnc([C@]4(C)C[C@@H](O)C4)n3)cc12 (single isomer, unassigned)', 'IC50', '> 50 nM'),
  ('CC(C)c1ccc(N2CC(CS(C)(=O)=O)C2)c2cnc(Nc3ccnc(-c4cnn(C)c4)n3)cc12', 'IC50', '10 to 20 nM'),
  ('CC(C)c1cnc(N2CC(CS(C)(=O)=O)C2)c2cnc(Nc3ccnc([C@H]4C[C@H](O)C4)n3)cc12', 'IC50', '> 50 nM'),
  ('CC(C)c1cnc(N2CC(CS(C)(=O)=O)C2)c2cnc(Nc3ccnc([C@H]4C[C@@H](O)C4)n3)cc12', 'IC50', '> 50 nM');

====

# target or test system: EGFR (L858R T790 M C797S) (Homo sapiens, UniProt P00533, C797S/L858R/T790M)
# Construct: purchased SignalChem E10-122VG
# assay method text: Biochemical EGFR inhibition assay (Caliper mobility shift), LRTMCS mutant at 1 mM ATP
# experimental context: read-out: LRTMCS (PH) IC50 (nM) @ 1 mM ATP (Num)
assay readout: IC50

INSERT INTO results (molecule, recorded_measurement) VALUES
  ('COc1ccc(-c2nccc(Nc3cc4c(C(C)C)ccc(N5CC(CS(C)(=O)=O)C5)c4cn3)n2)cn1', '30 to 100 nM'),
  ('CC(C)c1cnc(N2CC(CS(C)(=O)=O)C2)c2cnc(Nc3ccnc([C@H]4C[C@@H](O)C4)n3)cc12', '30 to 100 nM'),
  ('CC(C)c1cnc(N2CC(CS(C)(=O)=O)C2)c2cnc(Nc3ccnc(-c4cnn(C)c4)n3)cc12', '≤ 15 nM'),
  ('CC(C)c1ccc(N2CC(CS(C)(=O)=O)C2)c2cnc(Nc3ccnc([C@H]4C[C@@H]4C(F)F)n3)cc12 (single isomer, unassigned) [Example 16]', '> 100 nM'),
  ('CC(C)c1ccc(N2CC(CS(C)(=O)=O)C2)c2cnc(Nc3ccnc(C4=CCC5(CC4)OCCO5)n3)cc12', '15 to 20 nM'),
  ('CC(C)c1ncc(N2CC(CS(C)(=O)=O)C2)c2cnc(Nc3ccnc(-c4cnn(C)c4)n3)cc12', '≤ 15 nM'),
  ('CC(C)c1ccc(N2CC(CS(C)(=O)=O)C2)c2cnc(Nc3ccnc([C@H]4C[C@@H]4C(F)F)n3)cc12 (single isomer, unassigned) [Example 17]', '> 100 nM'),
  ('CC(C)c1cnc(N2CC(CS(C)(=O)=O)C2)c2cnc(Nc3ccnc([C@]4(C)C[C@@H](O)C4)n3)cc12 (single isomer, unassigned) [Example 24]', '30 to 100 nM'),
  ('CC(C)c1ccc(N2CC(CS(C)(=O)=O)C2)c2cnc(Nc3ccnc(-c4cnn(C)c4)n3)cc12', '≤ 15 nM'),
  ('CC(C)c1ccc(N2C[C@H](CS(C)(=O)=O)[C@H]2C)c2cnc(Nc3ccnc(-c4cnn(C)c4)n3)cc12 (single isomer, unassigned)', '≤ 15 nM'),
  ('C[C@H](CO)c1ccc(N2CC(CS(C)(=O)=O)C2)c2cnc(Nc3ccnc(-c4cnn(C)c4)n3)cc12 (single isomer, unassigned) [Example 18]', '≤ 15 nM'),
  ('CC(C)c1ccc(N2CC(CS(C)(=O)=O)C2)c2cnc(Nc3ccnc(C4CC(F)C4)n3)cc12 (stereo not shown)', '30 to 100 nM'),
  ('CC(C)c1cnc(N2CC(CS(C)(=O)=O)C2)c2cnc(Nc3ccnc(C4(C)CC(=O)C4)n3)cc12', '> 100 nM');

====

# Tested on: phosphorylation of EGFR in NCI-H1975 cell line that harbors the EGFR L858R T790 M mutations
# assay method text: NCI-H1975 pEGFR AlphaLISA assay
# Assay type: cell-based
# experimental context: Homo sapiens, NCI-H1975, NCI-H1975 cells, p-EGFR (Tyr1068), 4-5 hours incubation; read-out: Ext pEGFR H1975 GMean IC50 (nM) Protocol: @ Pharmaron AlphaLISA (Num)
The entries below are paired with their reported IC50.
assay readout: IC50

INSERT INTO results (molecule, assay_readout, recorded_measurement) VALUES
  ('Cc1ncc(-c2nccc(Nc3cc4c(C(C)C)cnc(N5CC(CS(C)(=O)=O)C5)c4cn3)n2)s1', 'IC50', '10 to 20 nM'),
  ('C[C@H](CO)c1ccc(N2CC(CS(C)(=O)=O)C2)c2cnc(Nc3ccnc(-c4cnn(C)c4)n3)cc12 (single isomer, unassigned)', 'IC50', '> 50 nM'),
  ('CC(C)c1ccc(N2CC(CS(C)(=O)=O)C2)c2cnc(Nc3ccnc(-c4cccnc4)n3)cc12', 'IC50', '10 to 20 nM'),
  ('CC(C)c1ncc(N2CC(CS(C)(=O)=O)C2)c2cnc(Nc3ccnc(-c4cnn(C)c4)n3)cc12', 'IC50', '30 to 50 nM'),
  ('CC(C)c1ccc(N2C[C@H](CS(C)(=O)=O)[C@H]2C)c2cnc(Nc3ccnc(-c4cnn(C)c4)n3)cc12 (single isomer, unassigned)', 'IC50', '10 to 20 nM'),
  ('CC(C)c1cnc(N2CC(CS(C)(=O)=O)C2)c2cnc(Nc3ccnc(C4CCC4)n3)cc12', 'IC50', '> 50 nM'),
  ('CC(C)c1cnc(N2CC(CS(C)(=O)=O)C2)c2cnc(Nc3ccnc(C4(C)CC(=O)C4)n3)cc12', 'IC50', '> 50 nM'),
  ('CC(C)c1ccc(N2CC(CS(C)(=O)=O)C2)c2cnc(Nc3ccnc([C@H]4C[C@@H]4C(F)F)n3)cc12 (single isomer, unassigned)', 'IC50', '> 50 nM'),
  ('Cc1ncc(-c2nccc(Nc3cc4c(C(C)C)ncc(N5CC(CS(C)(=O)=O)C5)c4cn3)n2)s1', 'IC50', '< 10 nM'),
  ('CC(C)c1cnc(N2CC(CS(C)(=O)=O)C2)c2cnc(Nc3ccnc(C45CC(CO)(C4)C5)n3)cc12', 'IC50', '> 50 nM'),
  ('COc1ccc(-c2nccc(Nc3cc4c(C(C)C)ccc(N5CC(CS(C)(=O)=O)C5)c4cn3)n2)cn1', 'IC50', '> 50 nM'),
  ('CCS(=O)(=O)CC1CN(c2ccc(C(C)C)c3cc(Nc4ccnc(-c5cnn(C)c5)n4)ncc23)C1', 'IC50', '10 to 20 nM'),
  ('CC(C)c1ccc(N2CC(CS(C)(=O)=O)C2)c2cnc(Nc3ccnc(C4CC(F)C4)n3)cc12 (centres unmarked)', 'IC50', '> 50 nM'),
  ('CC(C)c1cnc(N2CC(CS(C)(=O)=O)C2)c2cnc(Nc3ccnc(-c4cnn(C)c4)n3)cc12', 'IC50', '10 to 20 nM');
